All figures here come from ChEMBL document CHEMBL4513216.

- protocol notes: Toxicity liver stage against HepG2, at 10uM
- Type: cell-based
- Set-up: test concentration 10 uM, cell line HepG2-A16-CD81EGFP
- measurement context: human, HepG2-A16-CD81EGFP cells; read-out: INHIBITION
Some compounds, each annotated with its measured cytotoxicity at 10 µM.
I only need the number, in %, no unit after it.

Query: Param item = CC(c1ccccc1)N(C)C(=O)Cn1cc(NC(=O)C(C)(C)C)cn1 (stereo unspecified) ; retrieve measured cytotoxicity at 10 µM.
Result: 4

Query: And O=C(c1ccc(-n2cccn2)nc1)N1CCCC(n2cccn2)C1 (stereo unspecified) ?
Result: -4.75

Query: And CCc1cccc(N2CCC(NC(=O)C3CCCO3)CC2)c1 (stereo unspecified) ?
Result: -14.3

Query: And Cc1cnn(CC2CCCN2C(=O)c2c(F)cccc2Cl)c1 (stereo unspecified) ?
Result: -29.1

# input for lookup
Query: Param item = COc1c(C)cnc(CN2CCOC(Cn3cncn3)C2)c1C (stereo unspecified) ; retrieve measured cytotoxicity at 10 µM.
Result: -3.36
